Source: the supplement of paper PMC3342239

Task for the reader: assign each of the following compounds its reported fraction of cells in G1 phase.
- Tested on: Saccharomyces cerevisiae
- RUN DESCRIPTION: fraction of cells in G1 phase (DNA content, flow cytometry); higher = more cells with unreplicated DNA (G1 delay)
- SETTINGS: temperature: 30 C; YPD; JTY2953 pdr5 snq2 (sensitized); drug added to: cultures diluted from stationary phase; 6-7 h
Structures can show the parent of a compound that is named as a salt.
// return a plain number; no unit text

Just so you know, measured fraction of cells in G1 phase for Oc1ncnc2[nH]ncc12 [Allopurinol] (146.936 µM) came out at 0.483

Just so you know, measured fraction of cells in G1 phase for CCCCC[C@H](O)/C=C/[C@H]1[C@H](O)CC(=O)[C@@H]1C/C=C\CCCC(=O)O [Dinoprostone] (56.7416 µM) came out at 0.487

Just so you know, measured fraction of cells in G1 phase for NC(=O)c1ncn([C@@H]2O[C@H](CO)[C@@H](O)[C@H]2O)n1 [Ribavirin] (81.8972 µM) came out at 0.481

Just so you know, measured fraction of cells in G1 phase for O=C(O)COCCN1CCN(C(c2ccccc2)c2ccc(Cl)cc2)CC1 (stereo not given) [Cetirizine 2HCl] (43.3088 µM) came out at 0.492

Just so you know, measured fraction of cells in G1 phase for CCn1cc(C(=O)O)c(=O)c2cc(F)c(N3CCN(C)CC3)cc21 [Pefloxacine mesylate] (59.9942 µM) came out at 0.465
